These measurements were taken from the supplement of paper PMC9170038.

# Test system: K4 kissing-loop RNA reporter
# experimental.details: apparent KD of K4 kissing-loop reporter; higher = weaker reporter binding
# setup.conditions: Eterna round: R107; input ligand: FMN 200 uM
Bucketed by reported apparent KD of K4 kissing-loop reporter, buckets being range A = under 100 nM, range B = from 100 nM up to 200 nM, range C = 200 nM and over

| seq.text | qualitative.label |
| --- | --- |
| AGUGAUGUUGUGUGAUGUUAGUGAAGUGAUCGAGGACCGGUACGGCCGCCACUCGAGUGAUGAGUGAGUGAUGUUUGUUUAGUGG [#17 K4 Tryptophan A Same State] | range C |

Classify this sequence: GGUCGAGUGAUGUUCGAUGUUAUGCAUUCAGAGGAUAUAGGAUUAGCUAGAAGGCUGAAUCAAUCUUCGAGUGAUGUUCGAGGAU [Same State FMN A GF 9]
range B

Classify this sequence: GGAUAGGACAGAGGAUAUGGUAGUGAUGUUACCAAACUGGUUACUUUUGUCAGAAAACUGGCAUUUCCAGAAGGCUGUCCUAUCG [KL-XFMN-B12]
range C

* * *

# System: K4 kissing-loop RNA reporter
# experimental.details: apparent KD of K4 kissing-loop reporter; higher = weaker reporter binding
# setup.conditions: Eterna round: R107; input ligand: theophylline 20 uM
Label criterion met when apparent KD of K4 kissing-loop reporter is at or above 0.2 µM; anything below gets criterion not met.

| seq.text | qualitative.label |
| --- | --- |
| CUUAUGGACUAAGGAUAUGGGUAUACCGGAAGCGCCGUCACGGUAGUGAUGUUACACGCGACGGGACCAGAAGGUAGAUCGCUCC [theeternabot_exclusion_KL_FMN_B_33] | criterion not met |
| AUUUUGUUGUCAGGAUAUUAGUAUGGUUUUGGUUUGUUAGUGAUGUUGAUGGUUUGUUUAUGUAUUUAAGAAGGGAUUUAGCGGU [swwsgumullin] | criterion met |
| CAUUCAGUGAUGUUGGAAGGCGAGCGGGAUACCAGCGGAGACUCACGCCCUUGGCAGCCCACAUAUCCCAGGUAGAUAAUAGUUC [Same State - Theophylline A (Freestyle 6)] | criterion not met |
| UGGAGUUGACGAAAAGUCAACUCCAGAGAAGGAGCGGACGAAAGUCCAGGUAGGUCGCUCACUACCAGUGAUGUUGGUACUUAAA | criterion not met |
| GGAUAGGACAUAGGAUAUGGGCUAGGCAAGAAUAACUUGUCUAGCAAAUCCAUGAGGAGUGAUGUUCCAGAAGGAUGUCCUAUCG [FmnBX 1 U11+A75] | criterion not met |
| GGGAUAGGAUCAGUGAUGUUGGUCCCAGAUACCAGACAAAGUCACGUCCCUUGGCAGCUGAUGAUCGCUGACGACCGGCCUCCAA [theeternabot_sameState_KL_Theo_A_7] | criterion met |
| AGAGUACGAAAGUACUCCUCUACACACUGACGAGGACCGGUACGGCCGCCACUCGAGUUGAGUGAUGUUCGAUAGUGUGUAGAGA [Omei KL Tryp A SS C v3] | criterion met |
| UGUGGAGGAUAUGAUACCAGCAGUGAGAGAGAGGAAGUAUAGUGAUGUUAUAUGAGAGAAUGCCCUUGGCAGCGUGUGUAGUGGG [SSTheophylB.K] | criterion not met |

Identify whether the reported apparent KD of K4 kissing-loop reporter of the following sequence is 0.2 µM or greater: GUAUAAAUAUAAGGAUAUGCAGGGAAAGUAAGAAUGGGUUAGUUGAACUUUAGUGAUGUUGAGGAAGCAGAAGGUGUAUAUGUGU [FMN B same state]
criterion met

Identify whether the reported apparent KD of K4 kissing-loop reporter of the following sequence is 0.2 µM or greater: UCCUUUUUUGCCAGUGAUGUUGGACAGGAAGGAGCGGGCAUAAGCCCAGGUAGGUCGCCUGUCAACUUUCUUAUAGCCCUAAGGU [Edveza]
criterion met

Identify whether the reported apparent KD of K4 kissing-loop reporter of the following sequence is 0.2 µM or greater: GGUGUGCCAAGUGAUGUUUGGCGUUCUCACCGAGGACCGGUACGGCCGCCACUCGUUAACUGACCAAGUAUCUUUACCUCGGAGA [theeternabot_sameState_KL_Trp_A_8]
criterion not met

Identify whether the reported apparent KD of K4 kissing-loop reporter of the following sequence is 0.2 µM or greater: AUGCAUGAAAGUGAUGUUUUCAGUAAUGGAAAGGAUAUGCGCUGGUGCAGAAGGUUCUAAAGUGCAUCCAACAACUGGGUAGGCC [theeternabot_sameState_KL_FMN_A_36]
criterion met

Identify whether the reported apparent KD of K4 kissing-loop reporter of the following sequence is 0.2 µM or greater: UACUUAUUUUUUAACUUAAAUUUUUCAGAAGGAGCGUGAUCAUUCACAGGUAGGUCGCUGAACUAGUGAUGUUAGUUUUAAUUUU [JR_Nu_ExcArginiA_Sub024]
criterion not met

Identify whether the reported apparent KD of K4 kissing-loop reporter of the following sequence is 0.2 µM or greater: GAUUGAGUGAUGUUCAAUUAGUAUCUAGAUACCAGAAUGUCUACCUUCCCUUGGCAGCUACUGACGGUGAUCAUUUCGCGCGCAG [theeternabot_sameState_KL_Theo_A_19]
criterion met

Identify whether the reported apparent KD of K4 kissing-loop reporter of the following sequence is 0.2 µM or greater: `GCCGUACGCAUGGAUACCAGCUGCGAAGUGAUGUUUCGGGCGAUCAAAGGAUCGCCCUACAGCCCUUGGCAGCCAUGCGUACGGC`
criterion not met

Identify whether the reported apparent KD of K4 kissing-loop reporter of the following sequence is 0.2 µM or greater: GCGUCACGUCGGGAUACCAGAGAAAUGGCAUUAGCCAAUGACGAGUGAUGUUCGUAGGCGCUCCCUUGGCAGCCCACCGGGAGGA [theeternabot_sameState_KL_Theo_B_21]
criterion met

Identify whether the reported apparent KD of K4 kissing-loop reporter of the following sequence is 0.2 µM or greater: CAAAUGUUGUCAGGAUAUGAGCGCAGUGAUGUUGCGGUUGUAUUUAUGACUGGAGCAGCGUAAGCCUCAGAAGGGACAAGUUGCC [Qubioran]
criterion not met

* * *

# Test system: MS2 coat protein
# experimental.details: apparent KD of MS2 coat protein; higher = weaker reporter binding
# setup.conditions: Eterna round: R107; input ligand: tryptophan 2.4 mM
Label MET when apparent KD of MS2 coat protein is at or above 20 nM; anything below gets NOT MET.

| seq.text | qualitative.label |
| --- | --- |
| GCAUCCUAGUCGGCCGCCACUGCAGGAUCGGCGGCAGAUCCUCAACAUGAGGAUCACCCAUGUAGCAGGACCGGGACUAGGAUGC [(Trp1)-(TM)''-(TM)'-(Ms2)-(Trp2)_Design2] | MET |

Identify whether the reported apparent KD of MS2 coat protein of the following sequence is 20 nM or greater: AGCGCAGGUCCUGAUACCAGAGACAUGAGGAUCACCCAUGUCCGAUGGUCCUGCCUCAGGCUCCCUUGGCAGCAGGGCUUGUGCU [Exclusion Theophylline B GF10]
NOT MET

Identify whether the reported apparent KD of MS2 coat protein of the following sequence is 20 nM or greater: AAAUAAAUACAUGAGGAUCACCCAUGUGAAGGAGCGGCCGUUAGGCCAGGUAGGUCGCGCAUGAAUAACUCCGUGCAUAAGCACA [MAT - Exclusion Arginine A - Mod of Eli - D18]
NOT MET

Identify whether the reported apparent KD of MS2 coat protein of the following sequence is 20 nM or greater: ACCGGCACCUAGGAUACCAGAUCCACAACAAACAUGAGGAUCACCCAUGUAUAAAGUGGUAUCCCUUGGCAGCCUGUGACAAUCG [theeternabot_sameState_MS2_Theo_B_19]
NOT MET

Identify whether the reported apparent KD of MS2 coat protein of the following sequence is 20 nM or greater: AAAUAAAUACAUGAGGAUCACCCAUGUGAAGGAGCGCGCGUUAGCGCAGGUAGGUCGCACAUGAAUAACUCCGCGCGAAAGCGCA [MAT - Exclusion Arginine A - Mod of Eli - D11]
NOT MET

Identify whether the reported apparent KD of MS2 coat protein of the following sequence is 20 nM or greater: AAUGUAAUAGUCGUACUCUUACACUGAGAAGGAGCGCGAAAGUUCGCAGGUAGGUCGCUCAGUUAUACAUGAGGAUCACCCAUGU [Bebemaata]
MET

* * *

# Test system: K4 kissing-loop RNA reporter;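 also: bound reporter read as fluorescence of individual clusters on recovered sequencing chips by microscopy, with normalized cluster intensities fitted with a binding model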
# experimental.details: apparent KD of K4 kissing-loop reporter; higher = weaker reporter binding
# setup.conditions: Eterna round: R107; input ligand: none
metric.name: apparent KD of K4 kissing-loop reporter (nM)
Expressed in nM, but write only the number.

Some sequences with known apparent KD of K4 kissing-loop reporter results, for comparison:
| seq.text | readout.value |
| --- | --- |
| CUUAUGGACUAAGGAUAUGGGUAUACCGGAAGCGCCGUCACGGUAGUGAUGUUACACGCGACGGGACCAGAAGGUAGAUCGCUCC [theeternabot_exclusion_KL_FMN_B_33] | 101 |
| UGGAUAUCGUUUAGUCUGGUGAGCUCAGAUACCAGACUAGCGAUAGUCCCUUGGCAGCUGAUUAUGAUUGAGUGAUGUUCAAUCG [Theo A Ex t9b] | 168 |
| AAGGCAUUCAGAAGGAGCGUGGUUUAAUCAUUAAUAUUUUUUACGAGUGAUGUUCGUAAUUCACAGGUAGGUCGCUGAAUAAUAA [JR_ExcArginiB_Sub008] | 128 |

We now examine a further sequence.
Data request, read-out apparent KD of K4 kissing-loop reporter, for GGAUAGGACAGAGGAUAUGGUAGUGAUGUUACCAAACUGGUUACUUUUGUCAGAAAACUGGCAUUUCCAGAAGGCUGUCCUAUCG [KL-XFMN-B12]
68.6
